molecular target: EPHB2 (UniProt P29323); assay: phosphorylation enrichment, bacterial display (enrichment ratio); higher = better substrate or ligand; peptides without Tyr show the background
Sequence (P29323 whole entry, looked up): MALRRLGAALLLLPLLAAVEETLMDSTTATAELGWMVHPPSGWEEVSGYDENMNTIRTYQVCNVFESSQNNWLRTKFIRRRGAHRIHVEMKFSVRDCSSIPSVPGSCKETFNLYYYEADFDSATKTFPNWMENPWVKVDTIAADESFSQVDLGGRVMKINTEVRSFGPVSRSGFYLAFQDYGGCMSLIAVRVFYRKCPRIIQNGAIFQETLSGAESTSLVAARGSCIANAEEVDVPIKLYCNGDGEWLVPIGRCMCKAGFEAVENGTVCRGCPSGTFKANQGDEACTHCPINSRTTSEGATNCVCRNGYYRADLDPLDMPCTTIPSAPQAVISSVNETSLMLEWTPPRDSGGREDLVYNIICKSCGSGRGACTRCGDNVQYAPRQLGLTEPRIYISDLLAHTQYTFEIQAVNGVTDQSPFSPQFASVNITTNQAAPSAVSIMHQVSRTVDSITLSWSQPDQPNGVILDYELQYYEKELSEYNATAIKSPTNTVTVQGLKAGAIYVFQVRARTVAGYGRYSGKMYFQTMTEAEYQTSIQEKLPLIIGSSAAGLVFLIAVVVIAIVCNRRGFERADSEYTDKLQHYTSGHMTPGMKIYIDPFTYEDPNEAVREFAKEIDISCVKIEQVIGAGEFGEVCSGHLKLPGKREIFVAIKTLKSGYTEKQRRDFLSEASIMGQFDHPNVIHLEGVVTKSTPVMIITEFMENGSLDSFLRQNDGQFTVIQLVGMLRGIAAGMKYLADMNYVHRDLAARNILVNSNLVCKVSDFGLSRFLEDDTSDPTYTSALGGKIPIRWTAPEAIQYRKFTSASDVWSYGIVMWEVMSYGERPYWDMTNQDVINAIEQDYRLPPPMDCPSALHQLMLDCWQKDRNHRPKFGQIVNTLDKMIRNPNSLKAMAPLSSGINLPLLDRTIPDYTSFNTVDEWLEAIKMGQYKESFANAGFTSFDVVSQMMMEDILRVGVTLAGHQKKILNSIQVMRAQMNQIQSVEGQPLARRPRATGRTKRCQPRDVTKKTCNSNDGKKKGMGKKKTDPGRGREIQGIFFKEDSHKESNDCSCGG
property-measured: phosphorylation enrichment
Just the number.

# residues, measured-on, result
rows = [
    ("LLANAYIYVVQ [L1CAM_Y418]", "EPHB2 (UniProt P29323)", 0.69),
]

-- ask What is its phosphorylation enrichment for EPHB2 (UniProt P29323)? Entry: RLLVVYPWNQR [HBB_Y36_T39N]
-- reply 0.752

###

target: Jak2 (UniProt O60674); test: phosphorylation enrichment, bacterial display (enrichment ratio); higher = better substrate or ligand; peptides without Tyr show the background
Sequence (O60674 whole entry, looked up): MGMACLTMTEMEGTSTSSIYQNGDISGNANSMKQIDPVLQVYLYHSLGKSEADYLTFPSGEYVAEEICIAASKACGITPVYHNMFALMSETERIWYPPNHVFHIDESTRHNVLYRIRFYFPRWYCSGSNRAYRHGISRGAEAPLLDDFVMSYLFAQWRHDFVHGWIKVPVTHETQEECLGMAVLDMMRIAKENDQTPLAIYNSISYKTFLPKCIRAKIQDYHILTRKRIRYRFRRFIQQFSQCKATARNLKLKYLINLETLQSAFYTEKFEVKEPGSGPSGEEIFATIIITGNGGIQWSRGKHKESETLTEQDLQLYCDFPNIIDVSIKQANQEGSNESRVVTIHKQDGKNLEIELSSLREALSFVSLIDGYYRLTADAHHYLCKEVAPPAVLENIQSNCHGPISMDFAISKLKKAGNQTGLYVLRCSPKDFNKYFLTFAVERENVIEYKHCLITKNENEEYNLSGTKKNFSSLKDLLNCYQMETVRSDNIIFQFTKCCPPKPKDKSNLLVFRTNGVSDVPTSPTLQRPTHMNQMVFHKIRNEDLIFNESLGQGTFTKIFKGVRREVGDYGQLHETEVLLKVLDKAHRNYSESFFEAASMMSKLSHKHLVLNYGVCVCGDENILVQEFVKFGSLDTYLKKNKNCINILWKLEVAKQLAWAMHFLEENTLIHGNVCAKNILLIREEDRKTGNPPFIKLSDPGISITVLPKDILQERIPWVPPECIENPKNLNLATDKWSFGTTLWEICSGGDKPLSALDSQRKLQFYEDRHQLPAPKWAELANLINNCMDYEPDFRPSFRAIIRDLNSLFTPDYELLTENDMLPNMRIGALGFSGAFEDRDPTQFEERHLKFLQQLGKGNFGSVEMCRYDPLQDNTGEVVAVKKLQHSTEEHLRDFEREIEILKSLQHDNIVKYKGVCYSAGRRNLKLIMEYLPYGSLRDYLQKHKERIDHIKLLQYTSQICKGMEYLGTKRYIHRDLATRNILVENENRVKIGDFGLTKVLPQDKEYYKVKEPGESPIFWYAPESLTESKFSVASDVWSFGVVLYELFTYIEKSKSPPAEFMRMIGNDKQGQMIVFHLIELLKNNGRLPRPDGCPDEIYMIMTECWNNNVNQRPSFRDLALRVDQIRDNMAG
Label 1 (yes) for high-side phosphorylation enrichment (at or above 0.9) and 0 (no) for low-side phosphorylation enrichment (below it).

Example results:
# residues, answer-label
measured = [
    ("NFGTNYRVGSS [CPO_Y278_K273N_YF]", "0 (no)"),
    ("YDCGMYSHLQG [LGR4_Y848]", "1 (yes)"),
]

-- ask Check the entry LSIWPYLQKID [MFSD8_Y63_M58L] : does phosphorylation enrichment equal or exceed 0.9?
-- reply 1 (yes)

-- ask Record KAFDMYSGDVM [FAM3D_Y122] ; criterion: phosphorylation enrichment no lower than 0.9. Met?
-- reply 0 (no)

-- ask Kindly determine if phosphorylation enrichment recorded for SARVRYLMAEK [LDHB_Y173_F171V] is above or exactly 0.9.
-- reply 0 (no)

-- ask Exam item: decide whether the reported phosphorylation enrichment for QKDIFYGLRSL [IGSF10_Y126_T124I] is at least 0.9.
-- reply 1 (yes)

-- ask hey, is phosphorylation enrichment for this one >= 0.9? DPHKIFEFVNS [IRF3_Y107_Y107F]
-- reply 0 (no)

###

Measured phosphorylation enrichment accompanies every entry in the list below.
target: EPHB1 (UniProt P54762); assay: phosphorylation enrichment, bacterial display (enrichment ratio); higher = better substrate or ligand; peptides without Tyr show the background
Sequence (P54762 whole entry, looked up): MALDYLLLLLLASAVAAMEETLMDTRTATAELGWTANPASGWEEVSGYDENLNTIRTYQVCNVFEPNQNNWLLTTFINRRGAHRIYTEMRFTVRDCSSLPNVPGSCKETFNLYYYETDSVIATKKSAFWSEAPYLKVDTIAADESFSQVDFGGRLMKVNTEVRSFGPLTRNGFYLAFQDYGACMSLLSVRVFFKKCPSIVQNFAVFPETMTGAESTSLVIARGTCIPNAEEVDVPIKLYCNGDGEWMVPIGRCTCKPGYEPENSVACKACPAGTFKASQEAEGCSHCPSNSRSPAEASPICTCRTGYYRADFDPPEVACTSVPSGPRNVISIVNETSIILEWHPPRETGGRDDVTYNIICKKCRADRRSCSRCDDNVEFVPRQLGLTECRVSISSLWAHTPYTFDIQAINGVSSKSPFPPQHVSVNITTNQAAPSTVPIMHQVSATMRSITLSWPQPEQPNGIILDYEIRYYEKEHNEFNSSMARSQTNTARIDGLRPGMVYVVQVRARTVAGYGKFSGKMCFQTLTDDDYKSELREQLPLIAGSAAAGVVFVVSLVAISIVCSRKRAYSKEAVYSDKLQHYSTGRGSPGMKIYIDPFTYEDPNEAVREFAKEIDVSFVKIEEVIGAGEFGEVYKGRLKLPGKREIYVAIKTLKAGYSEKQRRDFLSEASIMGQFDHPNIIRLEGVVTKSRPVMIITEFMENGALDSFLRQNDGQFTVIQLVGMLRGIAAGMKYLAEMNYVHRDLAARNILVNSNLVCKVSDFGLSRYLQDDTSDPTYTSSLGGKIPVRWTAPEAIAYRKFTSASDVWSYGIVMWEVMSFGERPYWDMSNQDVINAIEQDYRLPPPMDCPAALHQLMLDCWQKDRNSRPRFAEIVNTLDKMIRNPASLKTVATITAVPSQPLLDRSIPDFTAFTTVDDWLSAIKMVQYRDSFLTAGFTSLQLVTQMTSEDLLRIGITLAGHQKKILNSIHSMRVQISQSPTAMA
// response body must contain only the number

# residues, phosphorylation enrichment
records = [
    ("QHVPDYRQNVF [PCDHGA1_Y890_YF]", 0.583),
]

-- ask Sample DKMEAYNINET [TEKT4_Y210_D213N] — what was its phosphorylation enrichment?
-- reply 0.488

-- ask Which phosphorylation enrichment is reported for this sequence? VNFGAYINFFK [GLB1_Y488_D491Y_YF]
-- reply 0.586

-- ask Given the entry MNPPPYSQFLS [FGF23_Y154] , report its measured phosphorylation enrichment.
-- reply 0.467

-- ask # phosphorylation enrichment lookup, item EQKKFSNAMKK [SCN5A_Y1495_Y1495S_YF]
-- reply 0.229

-- ask Bench note: what phosphorylation enrichment did TARWEYMHSPS [CPOX_Y429] show?
-- reply 0.965

-- ask Fill blank: measured phosphorylation enrichment of the sequence NTQRPYFKGGG [TYROBP_Y111_YF] is ____.
-- reply 0.429

-- ask Bench note: what phosphorylation enrichment did AAVDNYCRHNY [HLA-DRB1_Y107_T106N] show?
-- reply 0.519

-- ask Value lookup for phosphorylation enrichment; key = ELRGTYTSLQQ [KIF3C_Y574]
-- reply 0.398

-- ask I have this sequence here, RRIFSYRGHLW [VHL_Y112_H110Y_YF] , and I need its recorded phosphorylation enrichment.
-- reply 0.47

-- ask Dear colleague, I am looking for the recorded phosphorylation enrichment of the following sequence: LFDPDFMKVIL [CYP4A22_Y104_Y104F_YF]
-- reply 1.63

-- ask Which phosphorylation enrichment is reported for this sequence? RTLIRYANLGN [BEST1_Y131]
-- reply 0.918

-- ask What value of phosphorylation enrichment has been reported for the following sequence? IDAICYFRMEN [NPHS2_Y194_YF]
-- reply 0.692

###

molecular target: SHP2-C SH2; test: SH2 binding enrichment of the phosphorylated peptide, bacterial display (enrichment ratio); higher = better substrate or ligand; peptides without Tyr show the background;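 note: peptide library displayed on the E. coli surface as eCPX fusions, selected cells deep-sequenced, score is each peptide's frequency after selection divided by its frequency in the input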
SH2 binding enrichment values, listed per item

# residues, measured-on, SH2 binding enrichment
rows = [
    ("QHNPEYVQQAS [LRRC7_Y1058]", "SHP2-C SH2", 0.64),
    ("SARVRYLMAEK [LDHB_Y173_F171V]", "SHP2-C SH2", 0.755),
    ("MPIPMYDGSQA [CARMIL1_Y637_A639G]", "SHP2-C SH2", 0.53),
    ("GSSKIYFLHPD [TLR5_Y108]", "SHP2-C SH2", 1.18),
    ("IGVGSYSVCKR [RPS6KA3_Y433]", "SHP2-C SH2", 0.88),
]

-- ask So what does the record say about SH2 binding enrichment for DPEATYTTSGS [EPHA2_Y772_G777S] ?
-- reply 0.731

-- ask Item RIVEIYSRRLR [GCH1_Y175_Q180R] has what recorded SH2 binding enrichment?
-- reply 0.353

-- ask Returns the measured SH2 binding enrichment for the input sequence. Input: TARWEYMHSPS [CPOX_Y429]
-- reply 0.778

-- ask Return reported SH2 binding enrichment; argument: ILGRTHFVNHE [NEDD4_Y627_Y627H_YF]
-- reply 0.637

-- ask Quick one: SH2 binding enrichment for LSNFNYEQRGA [API5_Y497_G493S] ?
-- reply 0.706

-- ask Any idea what its SH2 binding enrichment is? The sequence is PTATSYNPNLA [GABRA1_Y375_T376N]
-- reply 0.82

###

system: c-Abl (mouse); test: phosphorylation enrichment, bacterial display (enrichment ratio); higher = better substrate or ligand; peptides without Tyr show the background
I would appreciate it if you labelled entries fulfilled when phosphorylation enrichment is 0.8 or higher, otherwise not fulfilled.

# example entries with known answers
# residues, answer-label
records = [
    ("VEFAKYGSLQG [RET_Y809_R813Q_YF]", "not fulfilled"),
    ("CTLSVYRQLHN [LUZP1_Y1036]", "not fulfilled"),
    ("RRNVFYFSFLL [PTEN_Y177_Y174N_YF]", "fulfilled"),
    ("KDQGTYEDYVE [MYL6_Y86]", "fulfilled"),
    ("SHLSSYTTHPQ [NIPBL_Y195_P192L]", "not fulfilled"),
]

-- ask Has LNPFIYSLRNW [OR1A2_Y288] a recorded phosphorylation enrichment greater than or equal to 0.8?
-- reply fulfilled

-- ask Given HRDDGYMPMSP [IRS1_Y612_T608R] , state whether its phosphorylation enrichment is at least 0.8.
-- reply not fulfilled

-- ask Check this sequence for phosphorylation enrichment at or above 0.8: DPEATYTTSGS [EPHA2_Y772_G777S]
-- reply not fulfilled

-- ask Confirm if phosphorylation enrichment reported for the sequence EEQKKYYNAVK [SCN5A_Y1494_M1498V] is 0.8 or above.
-- reply not fulfilled

-- ask Assess whether reported phosphorylation enrichment for PPPELYFVKVD [TERT_Y707] sits at 0.8 or higher.
-- reply fulfilled

-- ask Is the recorded value of phosphorylation enrichment equal to or greater than 0.8 for this sequence? DWRQEYVLNEP [TGM1_Y267_S272P]
-- reply not fulfilled

-- ask Please tell me: is the sequence AIIGIYILRDN [CDH23_Y2949_D2954N] at or over 0.8 in terms of phosphorylation enrichment?
-- reply fulfilled

-- ask Evaluate SWSTSYSGFRC [NKAPL_Y91_Y96C_YF] : phosphorylation enrichment at minimum 0.8?
-- reply not fulfilled

-- ask Decide: phosphorylation enrichment of REENGYNTFAS [FGF10_Y161_I156R_YF] >= 0.8?
-- reply not fulfilled

-- ask Check the entry NRDNTYNRVSE [FGA_Y127] : does phosphorylation enrichment equal or exceed 0.8?
-- reply not fulfilled

###

target: MERTK (UniProt Q12866); assay: phosphorylation enrichment, bacterial display (enrichment ratio); higher = better substrate or ligand; peptides without Tyr show the background
Sequence (Q12866 whole entry, looked up): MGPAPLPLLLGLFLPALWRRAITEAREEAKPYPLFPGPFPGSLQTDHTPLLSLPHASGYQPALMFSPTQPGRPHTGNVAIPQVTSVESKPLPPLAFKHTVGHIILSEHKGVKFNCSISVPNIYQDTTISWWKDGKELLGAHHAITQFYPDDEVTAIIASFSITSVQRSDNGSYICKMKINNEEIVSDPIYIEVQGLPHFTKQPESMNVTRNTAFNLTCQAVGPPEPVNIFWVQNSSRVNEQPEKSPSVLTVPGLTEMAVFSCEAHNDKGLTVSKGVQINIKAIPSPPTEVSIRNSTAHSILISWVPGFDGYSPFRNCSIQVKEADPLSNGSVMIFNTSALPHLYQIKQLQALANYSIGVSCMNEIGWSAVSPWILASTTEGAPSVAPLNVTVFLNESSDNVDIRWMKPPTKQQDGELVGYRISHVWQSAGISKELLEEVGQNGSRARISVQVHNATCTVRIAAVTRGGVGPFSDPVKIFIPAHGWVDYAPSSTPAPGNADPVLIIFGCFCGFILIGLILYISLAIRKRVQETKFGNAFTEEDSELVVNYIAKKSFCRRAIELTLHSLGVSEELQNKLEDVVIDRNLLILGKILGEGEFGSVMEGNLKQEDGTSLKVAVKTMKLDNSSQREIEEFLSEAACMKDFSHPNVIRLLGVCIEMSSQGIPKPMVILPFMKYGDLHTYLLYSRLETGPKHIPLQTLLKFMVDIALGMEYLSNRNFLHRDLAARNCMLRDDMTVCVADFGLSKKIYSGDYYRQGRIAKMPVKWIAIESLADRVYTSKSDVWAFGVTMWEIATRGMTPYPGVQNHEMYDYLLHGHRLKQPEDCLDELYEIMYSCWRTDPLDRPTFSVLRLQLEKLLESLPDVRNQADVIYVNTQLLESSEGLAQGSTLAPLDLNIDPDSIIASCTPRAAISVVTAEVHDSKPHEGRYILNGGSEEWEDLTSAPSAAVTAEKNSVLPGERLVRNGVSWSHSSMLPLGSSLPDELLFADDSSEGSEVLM
Each item that follows carries a reported phosphorylation enrichment.
Give the figure only, with no unit attached.

Sample records with phosphorylation enrichment:
# residues, result
data = [
    ("FSMGCYEIFLG [HMGCL_Y198_S201Y_YF]", 4.33),
    ("TLGPFYPSRLF [CRYAA_Y18]", 0.43),
    ("AFGTVYKGLWI [EGFR_Y727]", 0.39),
    ("YQLENYCNGGG [INS_Y108]", 0.426),
    ("PSRKDYETYQP [CTNND2_Y1154]", 0.6),
    ("PLDEEYFTLQI [TP53_Y327_G325E]", 0.941),
]

Please look at the following sequence next.
-- ask Returns the measured phosphorylation enrichment for the input sequence. Input: ADRNHYRRYRR [YBX1_Y145_P149R]
-- reply 0.532

###

biological target: MERTK (UniProt Q12866); assay: phosphorylation enrichment, bacterial display (enrichment ratio); higher = better substrate or ligand; peptides without Tyr show the background
Note to self: values exactly at 0.5 are 1. So phosphorylation enrichment at or above 0.5 is 1, below is -1.

# residues, answer-label
measured = [
    ("DSSIRYLQEIF [FGG_Y135_YF]", 1),
    ("DAMQTYNGNDE [TSPAN7_Y131]", 1),
    ("SRDPFYEMLAA [CYTH1_Y382]", 1),
    ("ATGGFYSFGGG [KRT24_Y120_YF]", 1),
    ("SHMVNYQPYRK [TEX37_Y25_D24N]", -1),
]

-- ask hey, is phosphorylation enrichment for this one >= 0.5? LYSINYLHFGE [KDM4C_Y201]
-- reply 1

-- ask phosphorylation enrichment >= 0.5 for PDMHSYVVRYN [GRIN2D_Y732_M733V] ?
-- reply -1

-- ask For this sequence, is measured phosphorylation enrichment 0.5 or higher? HNVPIYEGYGL [ACTA1_Y168_A172G]
-- reply 1

-- ask Hi team, for VTHKEYFIFLE [CAMKV_Y95_R92H] , is the recorded phosphorylation enrichment at or above 0.5?
-- reply 1

-- ask Item LPKVSYMKAID [GLRA1_Y307_V308M] with phosphorylation enrichment of 0.5 or above?
-- reply -1
